normalized growth for assorted compounds
Assay: chemical genetic growth profiling, strain panel (AID 1159580);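 note: tested at 20 µM; growth read once vehicle control cultures reached saturation at 30 °C; 1 = growth at the plate median or of vehicle wells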
Details: S. cerevisiae deletion strains, growth OD, locus YLR258W, strain gsy2, hits give low values
In all, about 5,500 compounds went through this assay and about 2,000 (36%) were called active. Inconclusive results (about 18%) are left out. The list shows a part of the results.

The recorded normalized growth for OCc1ccccc1O is 1.02 (inactive)

Consider CCN(CC)C(=O)c1cccc(C)c1 . Its measured normalized growth is 1.04 (inactive)

// sample O=C1[C@H](CCC(O)c2ccc(F)cc2)[C@@H](c2ccc(O)cc2)N1c1ccc(F)cc1 (stereo not given in full) , its normalized growth was 0.972 (inactive)

normalized growth reported for this compound C[C@@H]1C(=O)OC2[C@H](O)C34[C@@H]5OC(=O)[C@@]3(O[C@@H]3OC(=O)[C@H](O)[C@@]34[C@H](C(C)(C)C)[C@H]5O)[C@]21O (stereo not given in full) : 0.978 (inactive)

The compound listed as Nc1nc2ncc(=O)[nH]c2c(=O)[nH]1 has a reported normalized growth of 0.982 (inactive)

---

Test: chemical genetic growth profiling, strain panel (AID 1159580)
Details: S. cerevisiae deletion strains, growth OD, locus YHR030C, strain SLT2
The whole screen tested about 5,500 compounds, of which about 2,000 (36%) were called active. Inconclusive results (about 18%) are left out. Rule as the data show it: active = normalized growth mostly below about 0.91 (no sharp cut-off); inconclusive = no clear call, values can overlap the other calls; inactive = mostly above about 0.92. The list shows a part of the results.
Select the matching outcome among 1 (active), -1 (inactive)

1) O=C(CSCc1cccc2ccccc12)NNC(=O)c1ccc(F)cc1	-1
2) CCCn1c(=O)c(C#N)cn(-c2ccc(Cl)cc2)c1=O	-1
3) N#C/C(=C\c1cccn1-c1ccc(OC(F)(F)F)cc1)S(=O)(=O)c1ccccc1	-1
4) CC1(C)OC(=O)C(=Cc2cccn2-c2ccc(OC(F)(F)F)cc2)C(=O)O1	1

Query: Identify the outcome logged in this assay for the molecule shown: C=C1C(=O)OC2CC1C(OC(C)=O)C/C(C)=C/CC/C(C)=C/CC[C@]2(C)O (stereo not given in full)
Reply: -1

Query: For Nc1ccc(C(=O)/C(=C\c2cccc([N+](=O)[O-])c2)C(=O)c2ccc(-c3ccccc3)cc2)cc1 , what call appears in the results of this test?
Reply: -1

Query: Could you please tell me the result logged for CCCCCCCCCCCC(=O)NOC(=O)c1c(-c2c(Cl)cccc2Cl)noc1C in this assay?
Reply: 1

Query: # fetch the recorded call for O=C1CCC(c2cccs2)=NN1 here
Reply: -1

Query: Would you mind telling me which call this test gave C=CCCCCCCCCCCCC(O)CC(O)COC(C)=O (stereo not given) (tested in a mixture with another compound) ?
Reply: -1

Query: Field: outcome | Entry: CC(=O)Oc1c(C)cccc1C(=O)O
Reply: -1

Query: Could you check what this test reported for CC(=O)ON=C1c2cc([N+](=O)[O-])ccc2-c2ccc([N+](=O)[O-])cc21 ?
Reply: 1

Query: // return assay outcome for CCc1oc2ccccc2c1C(=O)c1cc(Br)c(O)c(Br)c1
Reply: 1

Query: Record request — test call for O=[N+]([O-])c1ccc(N2CCCN(C(=S)Nc3ccc(Cl)cc3Cl)CC2)nc1
Reply: 1

Query: Give the logged outcome of this assay for the following molecule: N#Cc1c(F)cccc1Oc1ccc(F)cc1
Reply: -1

Query: What call does the record list for CC(=O)c1ccc(-c2cccs2)s1 ?
Reply: 1

Query: Could you check what this test reported for Cc1ccc(NNC(=O)c2c(C)noc2C)cc1Cl ?
Reply: -1

Query: Call for entry C=C1C(C)C2C(Cc3ccccc3)NC(=O)C23OC(=O)/C=C/C(O)CCCC(C)C/C=C/C3C1O (stereo not given) :
Reply: -1

---

Assay: chemical genetic growth profiling, strain panel (AID 1159580)
Conditions: S. cerevisiae deletion strains, growth OD, locus YHR142W, strain chs7
In all, about 5,500 compounds went through this assay and about 2,000 (36%) were called active. Another 18% or so got no clear call; they are omitted. No stated cut-off is given here; in the data, active means normalized growth mostly below about 0.91 (no sharp cut-off); inconclusive means no clear call, values can overlap the other calls; inactive means mostly above about 0.92. Some of the results follow.
Mark one answer only. Choices: active, inactive

1) CC(C)NCC(O)c1cc(O)cc(O)c1 (configuration not stated)	inactive

Query: I would be grateful if you could indicate the recorded call for CCCCN1CCCCC1C(=O)Nc1c(C)cccc1C (configuration not stated) .
Reply: inactive

Query: Hi team, can someone confirm the assay call for CC(C)NC[C@H](O)COc1cccc2ccccc12 ?
Reply: inactive

Query: Please state the recorded outcome for this compound: CC[N+](CC)(CC)CCOc1cccc(OCC[N+](CC)(CC)CC)c1OCC[N+](CC)(CC)CC
Reply: inactive

---

Assay: chemical genetic growth profiling, strain panel (AID 1159580)
Details: S. cerevisiae deletion strains, growth OD, locus YFR010W, strain ubp6, hits give low values
Among all 5,500 compounds or so, about 2,000 (36%) were called active. Roughly 18% stayed inconclusive and do not appear here. The list shows a part of the results.
REPORTED_METRIC: normalized growth
Could you keep your reply to the number by itself?

// C=CCCCCCCCCCCCC(O)CC(O)COC(C)=O (stereo not given) (tested in a mixture with another compound) : normalized growth value = 0.974

Just so you know, measured normalized growth for COc1ccc(-c2coc3cc(OC)cc(OC)c3c2=O)cc1 came out at 1

// field: normalized growth; key: Cc1c(S(=O)(=O)O)oc2c1C(=O)C(=O)c1c-2ccc2c1CCCC2(C)C ; value = 0.943

So, C=C1C(=O)OC2CC1C(OC(C)=O)C/C(C)=C/CC/C(C)=C/CC[C@]2(C)O (stereo not given in full) ? Its normalized growth was 0.995

Noted for COc1cc(OC)c2c(=O)c(-c3ccccc3)coc2c1 : its normalized growth reads 1.01

---

Assay: chemical genetic growth profiling, strain panel (AID 1159580);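 note: tested at 20 µM; growth read once vehicle control cultures reached saturation at 30 °C; 1 = growth at the plate median or of vehicle wells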
Conditions: S. cerevisiae deletion strains, growth OD, locus YLR262C, strain YPT6, hits give low values
In all, about 5,500 compounds went through this assay and about 2,000 (36%) were called active. About 18% were inconclusive and are not listed. This is one part of the list.
Could you mark each record 1 if its normalized growth falls strictly under 0.7, and 0 if it equals or exceeds it?

Consider the worked cases shown below.
1) Nc1ccc(N=Nc2ccccc2)c(N)n1	1
2) O=C1CCC(c2cccs2)=NN1	0
3) Nc1ccc(C(=O)/C(=C\c2cccc([N+](=O)[O-])c2)C(=O)c2ccc(-c3ccccc3)cc2)cc1	0

Below: the item to evaluate.
Query: Answer whether the compound Cc1cc(NC(=O)c2c(-c3c(Cl)cccc3Cl)noc2C)c([N+](=O)[O-])cc1C has normalized growth strictly less than 0.7
Reply: 0

---

Experiment: chemical genetic growth profiling, strain panel (AID 1159580);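 note: tested at 20 µM; growth read once vehicle control cultures reached saturation at 30 °C; 1 = growth at the plate median or of vehicle wells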
Conditions: S. cerevisiae deletion strains, growth OD, locus YOR061W, strain CKA2, hits give low values
The campaign covered roughly 5,500 compounds. About 2,000 (36%) were called active. Another 18% or so got no clear call; they are omitted. The list shows a part of the results.
Listed next: entries and their corresponding normalized growth.
Please state the value as a number alone, without comment.

Would you please look over these solved cases?
1) O=C(O)c1cc2cc(Cc3cccnc3)ccc2o1	1.01
2) Cc1ccc(NNC(=O)c2c(C)noc2C)cc1Cl	0.917
3) O=C(Cn1ccnc1[N+](=O)[O-])NCCO	1
4) CCNC(=O)CC[C@H](N)C(=O)O	1
5) Cc1ccc(Cl)c(Nc2ccccc2C(=O)O)c1Cl	0.882
6) CO/N=C(\C(=O)N[C@@H]1C(=O)N2C(C(=O)O)=C(COC(C)=O)CS[C@H]12)c1csc(N)n1	0.976

Lab note: C=C1C(C)C2C(Cc3ccccc3)NC(=O)C23OC(=O)/C=C/C(O)CCCC(C)C/C=C/C3C1O (centres undefined) gave normalized growth of 1

Entry C/C1=C\CCC(=O)C2CC(C)(C)C2CC1 (centres undefined) , normalized growth reported as 1.02

For reference, reported normalized growth for CC(=O)Oc1c(C)cccc1C(=O)O stands at 1

---

Experiment: chemical genetic growth profiling, strain panel (AID 1159580);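 note: tested at 20 µM; growth read once vehicle control cultures reached saturation at 30 °C; 1 = growth at the plate median or of vehicle wells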
Settings: S. cerevisiae deletion strains, growth OD, locus YLR039C, strain RIC1
In all, about 5,500 compounds went through this assay and about 2,000 (36%) were called active. Inconclusive results (about 18%) are left out. Rule as the data show it: active = normalized growth mostly below about 0.91 (no sharp cut-off); inconclusive = no clear call, values can overlap the other calls; inactive = mostly above about 0.92. The list shows a part of the results.
Would you mind answering with one of these outcomes? True (active), False (inactive)

1. CC(C)C(C)/C=C/C(C)C1CCC2C3=CC=C4CC(O)CCC4(C)C3CCC21C (stereo not given)	False
2. Cc1cccc(Nc2ccccc2C(=O)O)c1C	True
3. NC(=O)c1cccc(N)c1	False
4. Cn1c(=O)c2[nH]cnc2n(C)c1=O	False

Query: Look up the recorded call for Cc1c(Cl)cccc1Nc1ccccc1C(=O)O in this test.
Reply: True

Query: I would be grateful if you could indicate the recorded call for COC(=O)c1c(-c2c(Cl)cccc2Cl)noc1NC(=O)NN1CCCCC1 .
Reply: False

Query: Tell me the assay call for O=C(O)CN(CC(=O)O)Cc1cc2c(-c3ccccc3C(=O)O)c3cc(CN(CC(=O)O)CC(=O)O)c(=O)cc-3oc2cc1O please.
Reply: False
